Items are presented alongside their recorded t1/2.
# TEST_METHOD_NOTES: Stability in phosphate buffer assessed as half life of camptothecin formation at 5 mg at pH 7 by HPLC
# Type: physicochemical
Please respond with the number in h and leave the unit unwritten.

[[record]]
compound_smiles = "CC[C@@H](N)C(=O)O[C@]1(CC)C(=O)OCc2c1cc1n(c2=O)Cc2cc3ccccc3nc2-1"
data_value = 26.27


Data request: // returns reported t1/2 for input CC[C@@]1(OC(=O)CN)C(=O)OCc2c1cc1n(c2=O)Cc2cc3ccccc3nc2-1
Data returned: 11.26

Data request: Again, but for CCC[C@@H](N)C(=O)O[C@]1(CC)C(=O)OCc2c1cc1n(c2=O)Cc2cc3ccccc3nc2-1
Data returned: 36.7

Data request: Again, but for CC[C@@]1(OC(=O)[C@@H](C)N)C(=O)OCc2c1cc1n(c2=O)Cc2cc3ccccc3nc2-1
Data returned: 16.3

###

# TEST_METHOD_NOTES: Stability in phosphate buffer assessed as half life of camptothecin formation at 5 mg at pH 7.4 by HPLC
# Format: physicochemical
# CONDITIONS: in vitro
Items are presented alongside their recorded t1/2.
Please respond with the number in h and leave the unit unwritten.

Sample answers from the record:
[[record]]
compound_smiles = "CC[C@@]1(OC(=O)[C@@H](C)N)C(=O)OCc2c1cc1n(c2=O)Cc2cc3ccccc3nc2-1"
endpoint = "t1/2"
data_value = 15.47

[[record]]
compound_smiles = "CC[C@@H](N)C(=O)O[C@]1(CC)C(=O)OCc2c1cc1n(c2=O)Cc2cc3ccccc3nc2-1"
endpoint = "t1/2"
data_value = 25.34

[[record]]
compound_smiles = "CC[C@@]1(OC(=O)CN)C(=O)OCc2c1cc1n(c2=O)Cc2cc3ccccc3nc2-1"
endpoint = "t1/2"
data_value = 10.79


Could you now consider this next compound?
Data request: // returns reported t1/2 for input CCC[C@@H](N)C(=O)O[C@]1(CC)C(=O)OCc2c1cc1n(c2=O)Cc2cc3ccccc3nc2-1
Data returned: 32.31

###

# TEST_METHOD_NOTES: Stability in phosphate buffer assessed as half life of camptothecin formation at 5 mg at pH 6.6 by HPLC
# Type: physicochemical
# CONDITIONS: in vitro
ENDPOINT: t1/2 (h)
Please respond with the number in h and leave the unit unwritten.

Sample answers from the record:
[[record]]
compound_smiles = "CC[C@@]1(OC(=O)CN)C(=O)OCc2c1cc1n(c2=O)Cc2cc3ccccc3nc2-1"
unit_name = "h"
data_value = 11.54

[[record]]
compound_smiles = "CCC[C@@H](N)C(=O)O[C@]1(CC)C(=O)OCc2c1cc1n(c2=O)Cc2cc3ccccc3nc2-1"
unit_name = "h"
data_value = 38.26

[[record]]
compound_smiles = "CC[C@@H](N)C(=O)O[C@]1(CC)C(=O)OCc2c1cc1n(c2=O)Cc2cc3ccccc3nc2-1"
unit_name = "h"
data_value = 28.25


Could you now consider this next molecule?
Data request: // returns reported t1/2 for input CC[C@@]1(OC(=O)[C@@H](C)N)C(=O)OCc2c1cc1n(c2=O)Cc2cc3ccccc3nc2-1
Data returned: 21.31

###

# TEST_METHOD_NOTES: Stability in phosphate buffer assessed as half life of prodrug hydrolysis at 5 mg at pH 7 by HPLC
# Type: physicochemical
ENDPOINT: t1/2
Write the quantity with the unit trailing the number.

Sample answers from the record:
[[record]]
compound_smiles = "CC[C@@]1(OC(=O)[C@@H](C)N)C(=O)OCc2c1cc1n(c2=O)Cc2cc3ccccc3nc2-1"
endpoint = "t1/2"
data_value = "2.828 h"

[[record]]
compound_smiles = "CCC[C@@H](N)C(=O)O[C@]1(CC)C(=O)OCc2c1cc1n(c2=O)Cc2cc3ccccc3nc2-1"
endpoint = "t1/2"
data_value = "4.119 h"

[[record]]
compound_smiles = "CC[C@@H](N)C(=O)O[C@]1(CC)C(=O)OCc2c1cc1n(c2=O)Cc2cc3ccccc3nc2-1"
endpoint = "t1/2"
data_value = "3.197 h"


Data request: // returns reported t1/2 for input CC[C@@]1(OC(=O)CN)C(=O)OCc2c1cc1n(c2=O)Cc2cc3ccccc3nc2-1
Data returned: 1.802 h

###

# TEST_METHOD_NOTES: Stability in phosphate buffer assessed as half life of prodrug hydrolysis at 5 mg at pH 6.6 by HPLC
# Assay type: physicochemical
# CONDITIONS: in vitro
ENDPOINT: t1/2 (h)
Please respond with the number in h and leave the unit unwritten.

Sample answers from the record:
[[record]]
compound_smiles = "CC[C@@]1(OC(=O)[C@@H](C)N)C(=O)OCc2c1cc1n(c2=O)Cc2cc3ccccc3nc2-1"
data_value = 4.336

[[record]]
compound_smiles = "CCC[C@@H](N)C(=O)O[C@]1(CC)C(=O)OCc2c1cc1n(c2=O)Cc2cc3ccccc3nc2-1"
data_value = 4.652

[[record]]
compound_smiles = "CC[C@@]1(OC(=O)CN)C(=O)OCc2c1cc1n(c2=O)Cc2cc3ccccc3nc2-1"
data_value = 2.564


Could you now consider this next compound?
Data request: // returns reported t1/2 for input CC[C@@H](N)C(=O)O[C@]1(CC)C(=O)OCc2c1cc1n(c2=O)Cc2cc3ccccc3nc2-1
Data returned: 4.68
